- System: Bacteroides thetaiotaomicron
- assay.method.text: growth AUC relative to DMSO control (median of replicates) (fraction); higher = more growth (less inhibition), active = hit call of the paper
- details: 20 µM; 24 h
property.measured: growth AUC
Give the figure only, with no unit attached.

Answer with reported growth AUC of CC(C)N(C(=O)C(=O)O)c1ccc(F)cc1
1.02

###

- Test system: Coprococcus comes
- assay.method.text: growth AUC relative to DMSO control (median of replicates) (fraction); higher = more growth (less inhibition), active = hit call of the paper
- details: 20 µM; 24 h
# key: entry, value: growth AUC
Give the figure only, with no unit attached.

// known answers, use as guide
• Nc1cc(Cl)nc(C(=O)O)c1Cl = 1.03
• CC(CNC(=S)[S-])NC(=S)[S-].[Zn+2] (mixture of isomers) = 1.04
• CCCNCCOc1c(Cl)cc(Cl)cc1Cl = 0.927
• c1ccc2c(c1)ccc1ccccc12 = 0.965
• CSc1nnc(C(C)(C)C)c(=O)n1/N=C/C(C)C = 1.02

Report growth AUC from Coprococcus comes testing of CNC(=O)/C(=N/OC)c1ccccc1CO/N=C(C)/C(=N/OC)C(/C)=N/OC
1.01

Report growth AUC from Coprococcus comes testing of Clc1ccc(Sc2cc(Cl)c(Cl)cc2Cl)cc1
0.964

Report growth AUC from Coprococcus comes testing of Oc1ccccc1O
0.993
